test system: HCT-116; test: NCI tumour cell line growth inhibition, 48 h
The source made the active and inactive calls. Cut-off read from the data, not from the text of the source: active = GI50 up to about 1.1 µM and inactive = higher.
observable: GI50

compound	GI50
CNC(=O)NCCCC(NC(C)=O)C(=O)NCc1ccccc1 (configuration not stated)	> 100 µM (inactive)
COc1ccc([C@H]2c3cc4c(cc3OC(O)(CO)[C@H]2C(=O)O)OCO4)c(OC)c1.COc1ccc([C@H]2c3cc4c(cc3OC3(O)COC(=O)[C@@H]23)OCO4)c(OC)c1 (some centres not stated)	> 100 µM (inactive)
[O-][S+](CC1(O)CCCCC1)c1ccccc1 (configuration not stated)	> 100 µM (inactive)
C=CCN1/C(=C2\SC(=S)N(c3ccc(C)cc3)C2=O)Sc2c1nc[nH]c2=O	> 100 µM (inactive)
O=c1c(S(=O)(=O)Oc2ccccc2)coc2cc(F)ccc12	> 100 µM (inactive)

Quick one: give me GI50 for each item below, same order please.
1. Cc1ccc(O)c(-c2cscn2)c1
2. COCCn1cnc2c(Cl)nc(Nc3ccccc3)nc21
3. O=[N+]([O-])c1ccc(Cl)cc1C1SCc2nc3ccccc3n21 (configuration not stated)
4. Oc1cccc(-c2cn3cc(C(F)(F)F)ccc3n2)c1
5. CNc1cc(N)ccc1C(=O)N1CCC[C@H]1CO
6. O=S(=O)(C1=CC(S(=O)(=O)c2ccccc2)CN(Cc2ccccc2)C1c1cccc2ccccc12)c1ccccc1 (configuration not stated)
7. CN(C)C(=S)/N=c1\ss/c(=N\C(=S)N(C)C)n1-c1ccc(Cl)c(Cl)c1
8. C/C=C1/CN2CCC34c5ccccc5N(C)C23C2CC1C4(C(=O)OC)C(O)O2 (configuration not stated)

1: 30.4 µM (inactive); 2: 27.7 µM (inactive); 3: 38.3 µM (inactive); 4: 39.9 µM (inactive); 5: > 100 µM (inactive); 6: > 69 µM (inactive); 7: > 100 µM (inactive); 8: > 100 µM (inactive)

====

test system: UACC-257; assay: NCI tumour cell line growth inhibition, 48 h
The source made the active and inactive calls. No stated cut-off is given here; in the data, active = GI50 up to about 1.1 µM and inactive = higher.
Please provide measured GI50 for the entries that follow.

# count of solved cases: 3
molecule	GI50
COC1/C(=C\C(=O)OC(C)(C)C)c2ccccc2N1C(C)=O (centres undefined)	> 100 µM (inactive)
CCOc1ccc(/N=N/C2C(=O)N(C(=O)CC(=O)Nc3ccccc3)N=C2C)cc1 (centres undefined)	> 100 µM (inactive)
O=C(O)Cn1c(=O)[nH]c(=O)c2[nH]cnc21	> 100 µM (inactive)

// each listed molecule needs a value for GI50
1. O=C(Nc1ccc2[nH]c3c(-c4ccccc4)nccc3c2c1)c1ccccc1[N+](=O)[O-]
2. CC(C)OP(=S)(NC(=S)c1ccccc1)OC(C)C
3. Cc1ccc(S(=O)(=O)N(CC(O)COc2ccccc2)c2c(F)cccc2F)cc1 (centres undefined)
4. COc1cc(/N=N\c2cccc(S(=O)(=O)O)c2)ccc1/N=N\c1ccc(/C=C/c2ccc(-n3on3-c3ccc(/C=C/c4ccc(/N=N/c5ccc(/N=N\c6cccc(S(=O)(=O)O)c6)cc5OC)cc4S(=O)(=O)O)c(S(=O)(=O)O)c3)cc2S(=O)(=O)O)c(S(=O)(=O)O)c1

4.11 µM (inactive)
> 100 µM (inactive)
21.8 µM (inactive)
> 100 µM (inactive)

====

tested on: HOP-62; assay: NCI tumour cell line growth inhibition, 48 h
Calls of active or inactive are those of the source. Rule as the data show it: active = GI50 up to about 1.1 µM and inactive = higher.
Pick one: active, inactive

Solved entries (count: 2):
molecule	assigned_category
CSc1nc(O)c2cn(Cc3ccccc3)nc2n1	inactive
C=C=C(CC)C(C(=O)OC)N(CC)CC (stereo not drawn)	inactive

So what was the verdict on `COc1ccc(NCc2cc(OC)c(OC)c(OC)c2)cc1` in this test?
active

====

tested on: SR; assay: NCI tumour cell line growth inhibition, 48 h
The source made the active and inactive calls. Rule as the data show it: active = GI50 up to about 1.1 µM and inactive = higher.
Tick one outcome: 1 = active, 0 = inactive

Some solved cases for reference:
compound	assigned_category
O=C(NC(Cl)(C(F)(F)F)C(F)(F)F)c1ccc(F)cc1	0
CCCCCCCCCCOCCOCCOCCOCCCCC(O)CCCCCCCC1=C[C@H](C)OC1=O (some centres not stated)	1
CNc1cc(N)ccc1C(=O)N1CCC[C@H]1CO	0
COC(=O)/C(=C/c1ccc(OC)cc1)NC(=O)c1ccccc1	0

Fill in: this test's call for `O=c1c(-c2ccccc2)c(O)nc2[nH]c3ccccc3n12` is ___
0

Okay, and `CN(C)CCC(=O)N1C/C(=C/c2ccccc2)C(=O)/C(=C\c2ccccc2)C1` ?
1

Entry to check: `O=C(O)Cn1c(=O)[nH]c(=O)c2[nH]cnc21`
0

Thanks! And COC(=O)N/N=C(\C)C(CN1CCCCC1)C(C1=C(O)c2ccccc2OC1)c1ccccc1 (configuration not stated) ?
0

Entry to check: `CCCCOc1ccc(S(=O)(=O)N/C(=N\O)Nc2ccc(Cl)cc2)cc1`
0

What about this compound? O=C(O)C1CCCCC1c1c2ccc(=O)c(O)c-2oc2c(O)c(O)ccc12 (configuration not stated)
0

Try `O=C(Nc1ccc2[nH]c3c(-c4ccccc4)nccc3c2c1)c1ccccc1[N+](=O)[O-]` next.
0

Also need O=C(O)C1Cc2c([nH]c3ccccc23)C(CCCCO)N1 (configuration not stated) , thanks.
0

====

tested on: SNB-19; experiment: NCI tumour cell line growth inhibition, 48 h
The source made the active and inactive calls. Rule as the data show it: active = GI50 up to about 1.1 µM and inactive = higher.
Please respond with reported GI50 for every item in the list.

molecule	GI50
CC(/C=C/c1ccccc1)=N\NC(N)=S	24 µM (inactive)

For every item in the list below, what is its measured GI50?
1. CN(C)CCn1c(=O)c2ccc(NCCN3CCNCC3)c3c(=O)c4ccccc4n(c1=O)c23
2. Cc1cc(N(CCC#N)CCC#N)ccc1C(/N=N/c1ccccc1)=N\NC(=O)c1ccccc1
3. O=C(O)Cn1c(=O)[nH]c(=O)c2[nH]cnc21
4. O=C1Nc2ccc(Br)cc2/C1=N/Nc1ccccc1[N+](=O)[O-]
5. COC1=C(Cl)C(=O)c2c(O)ccc(O)c2C1=O
6. CCCCSC1=N/C(=C\c2ccco2)C(Cl)=N1
7. Cc1ccc(C)c(NC(=O)CCC(=O)CC(=O)C(C)(C)C)c1

2.94 µM (inactive)
40.4 µM (inactive)
> 100 µM (inactive)
28.6 µM (inactive)
5.98 µM (inactive)
> 100 µM (inactive)
> 100 µM (inactive)

Below are some molecules; for each one, tell me its GI50.
1. Cc1cccc(C)c1Nc1nc(C)c(C(=O)CC(=O)C(=O)Nc2c(C(C)C)cccc2C(C)C)s1
2. O=C(CC1=Nc2nnc(CCCCCCCc3nnc4n3C(=O)C(CC(=O)c3ccccc3)=N4)n2C1=O)c1ccccc1
3. N/C(=N\O)N/N=C\c1ccc(O)c(O)c1O

["> 100 µM (inactive)", "> 100 µM (inactive)", "> 51.9 µM (inactive)"]

Take each entry in turn and give its GI50.
1. O=C1CC(c2ccc(Cl)cc2)C2(C(=O)NC(=O)NC2=O)C(c2ccc(Cl)cc2)C1 (configuration not stated)
2. COc1ccc(NC2=NCCO2)c2c1CCCC2
3. CCCCCCCCCCCCCP(=O)(O)OCC

["32.3 µM (inactive)", "39.4 µM (inactive)", "> 100 µM (inactive)"]

Please give GI50 for each item listed below.
1. COc1ccc(-c2[nH]c(-c3ccc(OC)cc3)c(-c3ccccn3)c2-c2ccccn2)cc1
2. COc1ccc2c(C)cc(N/N=C(\C)C=O)nc2c1
3. COc1c(O)cc(/C=C/c2cc(O)cc3c2[C@@]2(C(=O)O3)c3c(O)cc(O)cc3OC2c2cccc(O)c2)cc1O (some centres not stated)

["68.7 µM (inactive)", "13 µM (inactive)", "39.3 µM (inactive)"]

====

system: M14; assay: NCI tumour cell line growth inhibition, 48 h
Active and inactive are the calls of the source. No stated cut-off is given here; in the data, active = GI50 up to about 1.1 µM and inactive = higher.
Parameter call: string, one of active, inactive

Check out these entries, answers already filled in.
molecule	assigned_category
CCC(=C/[C@H](C)C/C=C/C(C)=C/[C@@H](C)C(=O)[C@@H](C)[C@H](O)[C@@H](C)CC)/C=C/[C@H]1CC=CC(=O)O1 [CALLYSTATIN A]	active
CNC(=O)OCC1=C(COC(=O)NC)CN(c2ccc(OC)cc2)C1	inactive
CCOC(=O)c1nc2ccc(C(F)(F)F)cc2[nH]c1=O	inactive
COCCn1cnc2c(Cl)nc(Nc3ccccc3)nc21	inactive
O=C1CC2CCN(C(=O)c3ccccc3)CC2CCN1 (stereo unspecified)	inactive
COc1cc2c(cc1OC)C(C(=O)c1cccc(OC)c1OC)C(=O)N(C)CC2 (stereo unspecified)	inactive
C/C(=C\CNc1ncnc2c1ncn2C1CCCCO1)COP(=O)(O)O (stereo unspecified)	inactive
C[C@]12CCC(=O)O[C@H]1CCCCO2	inactive
O=C1C=CC2(O)OCC3C=C4O[C@@H]5OC6(CCCCC6)O[C@@H]5C4[C@@H]2[C@@H]13 (stereo partly specified)	inactive
O=C1C=CC(=O)C(N(CCO)CCO)=C1.O=C1C=CC2(O)OCCN(CCO)C2=C1	inactive

What classification did COc1cc([N+](=O)[O-])ccc1N1C(=O)C2c3[nH]c4ccccc4c3C3CCC(C(C)(C)C)CC3C2C1=O (stereo unspecified) end up with in this test?
inactive

Entry `COc1ccc(S(=O)(=O)Nc2ccc(-c3csc(N4C(=O)/C(=C/c5cccs5)N=C4c4ccccc4)n3)cc2)cc1Cl` please
inactive

Next entry: `CC[C@]12C=CCN3CC[C@@]4(c5cc(Br)c(OC)cc5N(C)[C@H]4[C@@](O)(C(=O)NN)[C@@H]1O)[C@@H]32`
inactive

Ok, now SC1CCCN(Cc2ccccc2)C1 (stereo unspecified)
inactive

// next record `COc1ccc2c(C)cc(N/N=C(\C)C=O)nc2c1`
inactive
